- System: K562
- TEST_DETAILS: Cytotoxicity against human K562 cells after 4 days by MTT assay
- Format: functional, cell-based
- CONDITIONS_USED: K562, 96 h
EXPERIMENTAL_ENDPOINT: pIC50
Worth noting: pIC50 values are minus log10 of concentrations stated in mol/L.

Exam item: For CC(C)=CCCC(C)C12C=CC(C)(CC1)OO2 (stereo unspecified) , what is its reported pIC50?
Marked response: 5.04
